Some molecules, each annotated with its measured IC50.
Tested on: A549 cancer cells
Protocol: Cytotoxic activity against A549 cancer cells (sulforhodamin B method)
Type: cell-based
Stated conditions: Homo sapiens; A549 cells, SRB method, 48 hours; read-out: ED50, cytotoxic activity against A549
The reply should be a number in µg/mL, with the unit left off.

stdin: Any idea what IC50 was measured for CCCCCC(O)C1=CC(=O)c2c(OC)ccc(OC)c2C1=O (stereo not drawn) ?
stdout: 0.9

stdin: Any idea what IC50 was measured for CCOC(CCC(C)C)C1=CC(=O)c2c(O)ccc(O)c2C1=O (stereo not drawn) ?
stdout: 1.7

stdin: Any idea what IC50 was measured for CC(C)=CCC(OC(=O)C(Cl)(Cl)Cl)C1=CC(=O)c2c(O)ccc(O)c2C1=O (stereo not drawn) ?
stdout: 2

stdin: Any idea what IC50 was measured for CCCCCCCCCC(=O)OC(CC=C(C)C)C1=CC(=O)c2c(O)ccc(O)c2C1=O (stereo not drawn) ?
stdout: 15

stdin: Any idea what IC50 was measured for CC/C=C/CC(=O)OC(CCCCCCCCC)C1=CC(=O)c2c(O)ccc(O)c2C1=O (stereo not drawn) ?
stdout: 7.1

stdin: Any idea what IC50 was measured for CC(=O)OC(CCC(C)C)C1=CC(=O)c2c(O)ccc(O)c2C1=O (stereo not drawn) ?
stdout: 1.5

stdin: Any idea what IC50 was measured for C=CCCC(=O)OC(CC=C(C)C)C1=CC(=O)c2c(O)ccc(O)c2C1=O (stereo not drawn) ?
stdout: 1

stdin: Any idea what IC50 was measured for CC/C=C/C(=O)OC(CC=C(C)C)C1=CC(=O)c2c(O)ccc(O)c2C1=O (stereo not drawn) ?
stdout: 1.1

stdin: Any idea what IC50 was measured for CC(C)=CCC(OC(=O)C(C)C)C1=CC(=O)c2c(O)ccc(O)c2C1=O (stereo not drawn) ?
stdout: 1.9
